Value source: ChEMBL document CHEMBL1146069

Tested on: HT-29
PROTOCOL NOTES: Cellular uptake in human HT29 cells relative to unglycosylated TPP(p-DegOH)3
Assay type: ADME, cell-based
RECORDED METRIC: Ratio

Please review the entries below; each comes with its answer.
[[record]]
smiles_input = "OC[C@H]1O[C@@H](OCCOCCOc2ccc(-c3c4nc(c(-c5ccccc5)c5ccc([nH]5)c(-c5ccc(OCCOCCO[C@@H]6O[C@H](CO)[C@H](O)[C@@H](O)[C@H]6O)cc5)c5ccc([nH]5)c(-c5ccc(OCCOCCO[C@@H]6O[C@H](CO)[C@H](O)[C@@H](O)[C@H]6O)cc5)c5nc3C=C5)C=C4)cc2)[C@H](O)[C@H](O)[C@H]1O"
recorded_metric = "Ratio"
observed_value = 4.4

[[record]]
smiles_input = "OC[C@H]1O[C@H](OCCOCCOc2ccc(-c3c4nc(c(-c5ccccc5)c5ccc([nH]5)c(-c5ccc(OCCOCCO[C@H]6O[C@H](CO)[C@H](O)[C@@H](O)[C@H]6O)cc5)c5ccc([nH]5)c(-c5ccc(OCCOCCO[C@H]6O[C@H](CO)[C@H](O)[C@@H](O)[C@H]6O)cc5)c5nc3C=C5)C=C4)cc2)[C@H](O)[C@H](O)[C@H]1O"
recorded_metric = "Ratio"
observed_value = 1.8

[[record]]
smiles_input = "OC[C@H]1O[C@H](OCCOc2ccc(-c3c4nc(c(-c5ccccc5)c5ccc([nH]5)c(-c5ccc(OCCO[C@H]6O[C@H](CO)[C@@H](O)[C@@H](O)[C@@H]6O)cc5)c5ccc([nH]5)c(-c5ccc(OCCO[C@H]6O[C@H](CO)[C@@H](O)[C@H](O)[C@@H]6O)cc5)c5nc3C=C5)C=C4)cc2)[C@@H](O)[C@@H](O)[C@@H]1O"
recorded_metric = "Ratio"
observed_value = 1.7

[[record]]
smiles_input = "OC[C@H]1O[C@H](SCCOCCOc2ccc(-c3c4nc(c(-c5ccccc5)c5ccc([nH]5)c(-c5ccc(OCCOCCS[C@H]6O[C@H](CO)[C@@H](O)[C@H](O)[C@@H]6O)cc5)c5ccc([nH]5)c(-c5ccc(OCCOCCS[C@H]6O[C@H](CO)[C@@H](O)[C@H](O)[C@@H]6O)cc5)c5nc3C=C5)C=C4)cc2)[C@@H](O)[C@@H](O)[C@@H]1O"
recorded_metric = "Ratio"
observed_value = 1.2

[[record]]
smiles_input = "OC[C@H]1O[C@@H](SCCOCCOc2ccc(-c3c4nc(c(-c5ccccc5)c5ccc([nH]5)c(-c5ccc(OCCOCCS[C@@H]6O[C@H](CO)[C@H](O)[C@@H](O)[C@H]6O)cc5)c5ccc([nH]5)c(-c5ccc(OCCOCCS[C@@H]6O[C@H](CO)[C@H](O)[C@@H](O)[C@H]6O)cc5)c5nc3C=C5)C=C4)cc2)[C@H](O)[C@H](O)[C@H]1O"
recorded_metric = "Ratio"
observed_value = 3

[[record]]
smiles_input = "OC[C@H]1O[C@H](OCCOCCOc2ccc(-c3c4nc(c(-c5ccccc5)c5ccc([nH]5)c(-c5ccc(OCCOCCO[C@H]6O[C@H](CO)[C@@H](O)[C@H](O)[C@@H]6O)cc5)c5ccc([nH]5)c(-c5ccc(OCCOCCO[C@H]6O[C@H](CO)[C@@H](O)[C@H](O)[C@@H]6O)cc5)c5nc3C=C5)C=C4)cc2)[C@@H](O)[C@@H](O)[C@@H]1O"
recorded_metric = "Ratio"
observed_value = 5


API: the following record is the query input.
Lab note: measured Ratio of `OCCOCCOc1ccc(-c2c3nc(c(-c4ccccc4)c4ccc([nH]4)c(-c4ccc(OCCOCCO)cc4)c4ccc([nH]4)c(-c4ccc(OCCOCCO)cc4)c4nc2C=C4)C=C3)cc1` was 1
